Source listed as patent US8063053B2.

A collection of molecules and their measured pKi
# Measurement Target: serotonin 5-HT6 receptor subtype (Homo sapiens, UniProt P50406)
# Construct: host or cells: CHO-Dukx-A2 cells, clone 50-7
# Sequence (P50406 whole entry): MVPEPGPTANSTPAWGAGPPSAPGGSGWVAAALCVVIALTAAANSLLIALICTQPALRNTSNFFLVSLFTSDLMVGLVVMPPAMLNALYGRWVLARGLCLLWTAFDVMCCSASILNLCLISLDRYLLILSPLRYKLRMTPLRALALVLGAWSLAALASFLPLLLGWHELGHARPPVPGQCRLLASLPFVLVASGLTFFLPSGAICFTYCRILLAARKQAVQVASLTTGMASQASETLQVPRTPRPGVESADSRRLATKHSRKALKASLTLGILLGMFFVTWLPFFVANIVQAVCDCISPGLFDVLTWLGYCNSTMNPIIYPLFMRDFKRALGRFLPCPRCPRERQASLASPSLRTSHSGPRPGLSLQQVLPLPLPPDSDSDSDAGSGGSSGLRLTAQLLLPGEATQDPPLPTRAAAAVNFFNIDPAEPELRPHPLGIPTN
# Assay Explanation: 5-HT6 binding affinity ([3H]-LSD SPA binding)
# Conditions: read-out: 5-HT6 binding Ki
A value of pKi is the negative decimal logarithm of a concentration given in moles per litre.

Here is how some molecules turned out for pKi.
Cc1nc2c(N3CCNCC3)cccc2n1S(=O)(=O)c1ccc(F)cc1
7.98
Cc1cccc(S(=O)(=O)n2cnc3c(N4CCNC(C)C4)cccc32)c1 (stereo not drawn)
8.61
COc1ccccc1S(=O)(=O)n1cnc2c(N3CCNCC3)cccc21
9.81
O=S(=O)(c1c(Cl)cccc1Cl)n1cnc2c(N3CCNCC3)cccc21
8.88
O=S(=O)(c1cc(F)cc(Cl)c1)n1cnc2c(N3CCNCC3)cccc21
9.23
Cc1nc2c(N3CCNCC3)cccc2n1S(=O)(=O)c1ccc(Cl)cc1
8.22
CCCCc1nc2c(N3CCNCC3)cccc2n1S(=O)(=O)c1ccccc1
8.96
O=S(=O)(c1ccccc1C(F)(F)F)n1cnc2c(N3CCNCC3)cccc21
8.97

Please turn your attention to the following entry.
Look up and report measured pKi for this entry: "Cc1ccc(S(=O)(=O)n2cnc3c(N4CCNCC4)cccc32)c2ccccc12"
8.96

====

# Measurement Target: serotonin 5-HT6 receptor subtype (Homo sapiens)
# Construct: host or cells: CHO-Dukx-A2 cells, clone 50-7
# Assay Explanation: 5-HT6 binding affinity ([3H]-LSD SPA binding)
Assay Metric: pKi
A value of pKi is the negative decimal logarithm of a concentration given in moles per litre.

Look up and report measured pKi for this entry: O=S(=O)(c1ccccc1)n1cnc2c(N3CCNCC3)cccc21 [Example 3]
8.87

====

A collection of molecules and their measured pKi
# Measurement Target: serotonin 5-HT6 receptor subtype (Homo sapiens, UniProt P50406)
# Construct: host or cells: CHO-Dukx-A2 cells, clone 50-7
# Assay Explanation: 5-HT6 binding affinity ([3H]-LSD SPA binding)
# Conditions: read-out: 5-HT6 binding Ki
A value of pKi is the negative decimal logarithm of a concentration given in moles per litre.

Here is how some molecules turned out for pKi.
CC1CN(c2cccc3c2ncn3S(=O)(=O)c2ccccc2)CCN1 (centres unmarked)
9.03
Cc1nc2c(N3CCNCC3)cccc2n1S(=O)(=O)c1ccc2ccccc2c1
8.98

Look up and report measured pKi for this entry: "C[C@@H]1CN(c2cccc3c2ncn3S(=O)(=O)c2cccc(Cl)c2)CCN1"
8.63

Look up and report measured pKi for this entry: Cc1nc2c(N3CCNC(C)C3)cccc2n1S(=O)(=O)c1ccccc1 (stereo in doubt) [Example 116]
9.02

Look up and report measured pKi for this entry: Cc1nc2c(N3CCNC(C)C3)cccc2n1S(=O)(=O)c1cccc(F)c1 (centres unmarked)
8.97

====

A collection of molecules and their measured pKi
# Measurement Target: serotonin 5-HT6 receptor subtype (Homo sapiens, UniProt P50406)
# Construct: host or cells: CHO-Dukx-A2 cells, clone 50-7
# Assay Explanation: 5-HT6 binding affinity ([3H]-LSD SPA binding)
# Conditions: read-out: 5-HT6 binding Ki
A value of pKi is the negative decimal logarithm of a concentration given in moles per litre.

Cc1nc2c(N3CCNC(C)C3)cccc2n1S(=O)(=O)c1cccc2ccccc12 (stereo in doubt) [Example 115]
8.95
CC(C)C1CN(c2cccc3c2ncn3S(=O)(=O)c2cccc3ccccc23)CCN1 (stereo not drawn)
9.02
COc1c(F)cccc1S(=O)(=O)n1cnc2c(N3CCNCC3)cccc21
9.31
Cc1nc2c(N3CCNC(C)C3)cccc2n1S(=O)(=O)c1cccc2ccccc12 (stereo not drawn) [Example 92]
9.21
Cc1nc2c(N3CCNC(C)C3)cccc2n1S(=O)(=O)c1cccc2ccccc12 (stereo in doubt) [Example 117]
9.52
Cc1nc2c(N3C[C@@H](C)N[C@@H](C)C3)cccc2n1S(=O)(=O)c1ccccc1
7.57
O=S(=O)(c1ccccc1Cl)n1cnc2c(N3CCNCC3)cc(F)cc21
9.16
COc1ccc(S(=O)(=O)n2cnc3c(N4CCNCC4)cccc32)cc1
7.82

Please turn your attention to the following entry.
Look up and report measured pKi for this entry: "O=S(=O)(c1cccc(C(F)(F)F)c1)n1cnc2c(N3CCNCC3)cccc21"
8.95

====

# Measurement Target: serotonin 5-HT6 receptor subtype (Homo sapiens)
# Construct: host or cells: CHO-Dukx-A2 cells, clone 50-7
# Assay Explanation: 5-HT6 binding affinity ([3H]-LSD SPA binding)
# Conditions: read-out: 5-HT6 binding Ki
Assay Metric: Ki (nM)
# unit: nM | format: bare number

Cc1nc2c(N3C[C@@H](C)N[C@@H](C)C3)cccc2n1S(=O)(=O)c1ccccc1Cl
3.5
Cc1c(Cl)cccc1S(=O)(=O)n1cnc2c(N3CCN[C@H](C)C3)cccc21
1.2
Cc1cccc(S(=O)(=O)n2cnc3c(N4CCNCC4)cccc32)c1F
0.202

Look up and report measured Ki for this entry: "Cc1cccc(Cl)c1S(=O)(=O)n1cnc2c(N3CCNCC3)cccc21"
2.33

Look up and report measured Ki for this entry: "Cc1cccc(S(=O)(=O)n2c(C)nc3c(N4CCNCC4)cccc32)c1"
1.3

====

# Measurement Target: serotonin 5-HT6 receptor subtype (Homo sapiens)
# Construct: host or cells: CHO-Dukx-A2 cells, clone 50-7
# Assay Explanation: 5-HT6 binding affinity ([3H]-LSD SPA binding)
# Conditions: read-out: 5-HT6 binding Ki
Assay Metric: pKi
A value of pKi is the negative decimal logarithm of a concentration given in moles per litre.

O=S(=O)(c1cccc(F)c1)n1cnc2c(N3C[C@@H]4C[C@H]3CN4)cccc21
7.66
O=S(=O)(c1cccc(Cl)c1)n1cnc2c(N3CCNCC3)cccc21
8.37
Cc1nc2c(N3CCN(C)CC3)cccc2n1S(=O)(=O)c1cccc2ccccc12
11.40
O=S(=O)(c1ccccc1Cl)n1cnc2c(N3C[C@@H]4C[C@H]3CN4)cccc21
8.28
Cc1ccc(S(=O)(=O)n2c(C)nc3c(N4CCNCC4)cccc32)cc1
9.33
Cc1nc2c(N3CCNCC3)cccc2n1S(=O)(=O)c1cccc(F)c1
8.77

Look up and report measured pKi for this entry: "O=S(=O)(c1cc(F)ccc1F)n1cnc2c(N3CCNCC3)cccc21"
9.07

====

# Measurement Target: serotonin 5-HT6 receptor subtype (Homo sapiens, UniProt P50406)
# Construct: host or cells: CHO-Dukx-A2 cells, clone 50-7
# Assay Explanation: 5-HT6 binding affinity ([3H]-LSD SPA binding)
# Conditions: read-out: 5-HT6 binding Ki
pKi: −log10 of the molar value.
Please mark YES if the recorded pKi is equal to or greater than 9, and NO if it falls below.

Some solved entries appear below for comparison.
CN1CCN(c2cccc3c2ncn3S(=O)(=O)c2cccc3ccccc23)CC1
YES
CC(C)c1nc2c(N3CCNCC3)cccc2n1S(=O)(=O)c1ccccc1Cl
YES
Cc1nc2c(N3CCNCC3)cccc2n1S(=O)(=O)c1ccccc1C(F)(F)F
NO

Is pKi at least 9? Consider CC(C)CC1CN(c2cccc3c2ncn3S(=O)(=O)c2cccc3ccccc23)CCN1 (centres unmarked)
NO

Is pKi at least 9? Consider "Cc1nc2c(N3C[C@@H]4C[C@H]3CN4)cccc2n1S(=O)(=O)c1ccccc1Cl"
NO

====

# Measurement Target: serotonin 5-HT6 receptor subtype (Homo sapiens)
# Construct: host or cells: CHO-Dukx-A2 cells, clone 50-7
# Assay Explanation: 5-HT6 binding affinity ([3H]-LSD SPA binding)
# Conditions: read-out: 5-HT6 binding Ki
pKi: −log10 of the molar value.
Please mark true (1) if the recorded pKi is equal to or greater than 8, and false (0) if it falls below.

Some solved entries appear below for comparison.
Cc1nc2c(N3CCNCC3)cccc2n1S(=O)(=O)c1cccc2ccccc12 [Example 4]
true (1)
CN1CCN(c2cccc3c2ncn3S(=O)(=O)c2ccccc2)CC1 [Example 12]
true (1)
Cc1nc2c(N3C[C@@H]4C[C@H]3CN4)cccc2n1S(=O)(=O)c1cccc(F)c1 [Example 112]
false (0)
Cc1c(Cl)cccc1S(=O)(=O)n1cnc2c(N3CCN[C@@H](C)C3)cccc21 [Example 82]
true (1)
COc1ccc(S(=O)(=O)n2c(C)nc3c(N4CCNCC4)cccc32)cc1 [Example 13]
true (1)

Turning now to a further record.
Is pKi at least 8? Consider C[C@H]1CN(c2cccc3c2ncn3S(=O)(=O)c2cccc3ccccc23)CCN1 [Example 81]
true (1)

====

# Measurement Target: serotonin 5-HT6 receptor subtype (Homo sapiens, UniProt P50406)
# Construct: host or cells: CHO-Dukx-A2 cells, clone 50-7
# Assay Explanation: 5-HT6 binding affinity ([3H]-LSD SPA binding)
# Conditions: read-out: 5-HT6 binding Ki
Assay Metric: pKi
A value of pKi is the negative decimal logarithm of a concentration given in moles per litre.

Cc1c(Cl)cccc1S(=O)(=O)n1c(C)nc2c(N3C[C@@H]4C[C@H]3CN4)cccc21
7.85
O=S(=O)(c1ccc(Cl)cc1)n1cnc2c(N3CCNCC3)cccc21
8.88

Please turn your attention to the following entry.
Look up and report measured pKi for this entry: "O=S(=O)(c1cccc(OC(F)(F)F)c1)n1cnc2c(N3CCNCC3)cccc21"
8.71
